# Tested on: biotinyl-Val-oxazolone
# Test Protocol: self-aminoacylation, catalytic enhancement (BVO) (fold over background); higher = more active; k-Seq, kA / k0A0; sequences stand for … in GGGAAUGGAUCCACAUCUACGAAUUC…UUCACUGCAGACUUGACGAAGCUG
This sample holds only a part of the variants without activity.
Metric Name: self-aminoacylation
Numbers only.

Worked set:
[[record]]
input_sequence = "AUUCACCUAGCUCAUGGGGUG [Fam2.2 aminoacylation ribozyme variant]"
metric_name = "self-aminoacylation"
recorded_measurement = 2.8

[[record]]
input_sequence = "AUUACAGUGGUCAUCGAGUGA [Fam2.1 aminoacylation ribozyme variant]"
metric_name = "self-aminoacylation"
recorded_measurement = 1.76

[[record]]
input_sequence = "UUCACCCUGGUCAUCGAGUGA [Fam2.1 aminoacylation ribozyme variant]"
metric_name = "self-aminoacylation"
recorded_measurement = 6.29

[[record]]
input_sequence = "AUUACCCUGGCUAUCGAGUGA [Fam2.1 aminoacylation ribozyme variant]"
metric_name = "self-aminoacylation"
recorded_measurement = 1.82


Here is the next item to consider.
# lookup: self-aminoacylation of CCACACUUCAAUCAAUCGGUC [Fam1B.1 aminoacylation ribozyme variant]
1.17

Values were extracted from the supplement of paper PMC9233669.
